- measured-on: OROV Endo-Nter (N-terminal endonuclease domain of the OROV RNA polymerase, L protein) (Oropouche virus, UniProt A0A0B5CUJ1)
readout-label: pIC50
API: returns pIC50 as number; meaning -log10 of concentration in mol/L.

Query (molecule): COc1cc(O)c2c(c1)oc(=O)c1c3cc(O)c(O)cc3oc21 [WDL, 7‑methoxy 5,11,12-trihydroxy-coumestan] ; field requested: pIC50 6.51
